# System: MS21 (low-passage patient-derived GBM line)
# METHOD SUMMARY: Drug screening of MS21 tumor foci on OBSCs
# Format: cell-based, human
# CONDITIONS USED: MS21 on OBSCs; dose required to kill 50% of the tumor; read-out: EC50
EXPERIMENTAL READOUT: pEC50
pEC50 is defined as minus the log10 of a concentration measured in mol/L.

compound="N.N.[Cl][Pt][Cl] [Cisplatin]" obs_value=4.61

Continue with the next compound.
Task: Recorded pEC50 of `N.N.O=C([O-])C1(C(=O)[O-])CCC1.[Pt+2]` , please.
Result: 4.04
